Data provenance is ChEMBL document CHEMBL1201861.

Tested on: HGC-27;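 further: growth inhibition of human HGC-27 cells, read out in a cell viability assay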
Assay: cells
Format: functional, cell-based, Homo sapiens
Conditions: Homo sapiens, HGC-27
Description: SANGER: Inhibition of human HGC-27 cell growth in a cell viability assay.
List of IC50 values.
Readout Type: IC50

- Query Smiles: "Cn1cc(C2=C(c3ccc(Cl)cc3Cl)C(=O)NC2=O)c2ccccc21"
  Assayed Target: "HGC-27"
  Obs Value: "> 10000 nM"
- Query Smiles: "CC(=O)O[C@@]12CO[C@@H]1C[C@H](O)[C@@]1(C)C(=O)[C@H](O)C3=C(C)[C@@H](OC(=O)[C@H](O)[C@@H](NC(=O)OC(C)(C)C)c4ccccc4)C[C@@](O)([C@@H](OC(=O)c4ccccc4)[C@H]21)C3(C)C"
  Assayed Target: "HGC-27"
  Obs Value: "0.471 nM"
- Query Smiles: "CN(C)C/C=C/C(=O)Nc1cc2c(Nc3ccc(F)c(Cl)c3)ncnc2cc1O[C@H]1CCOC1"
  Assayed Target: "HGC-27"
  Obs Value: "> 500 nM"

---

Listed here are compounds together with their documented pIC50.
Tested on: NB17;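 further: growth inhibition of NB17 cells, read out with a cell viability assay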
Test: cells
Format: functional, cell-based
Conditions: Homo sapiens
Description: SANGER: Inhibition of human NB17 cell growth in a cell viability assay.
pIC50: −log10 of the molar value.
Readout Type: pIC50

- Compound: "O=C(NOCC1CC1)c1ccc(F)c(F)c1Nc1ccc(I)cc1Cl [CI-1040]"
  Obs Value: "< 5.00"
- Compound: "CO[C@H]1C[C@@H]2CC[C@@H](C)[C@@](O)(O2)C(=O)C(=O)N2CCCC[C@H]2C(=O)O[C@H]([C@H](C)C[C@@H]2CC[C@@H](O)[C@H](OC)C2)CC(=O)[C@H](C)/C=C(\\C)[C@@H](O)[C@@H](OC)C(=O)[C@H](C)C[C@H](C)/C=C/C=C/C=C/1C [SIROLIMUS]"
  Obs Value: "< 7.00"
- Compound: "CC1=C2C[C@H]3[C@@H](CC=C4C[C@@H](O)CC[C@@]43C)[C@@H]2CC[C@]12O[C@@H]1C[C@H](C)CN[C@H]1[C@H]2C [CYCLOPAMINE]"
  Obs Value: "< 4.80"
- Compound: "CCOc1nc(NC(=O)Cc2cc(OC)ccc2OC)cc(N)c1C#N"
  Obs Value: "< 5.00"
- Compound: "CC(=O)O[C@@H]1[C@@H](OC(C)=O)[C@@H](O)[C@H](Oc2c(-c3ccc(O)cc3)oc3cc(O)cc(O)c3c2=O)O[C@H]1C"
  Obs Value: "< 5.00"
- Compound: "CN(Cc1cnc2nc(N)nc(N)c2n1)c1ccc(C(=O)N[C@@H](CCC(=O)O)C(=O)O)cc1 [METHOTREXATE]"
  Obs Value: "< 6.70"
- Compound: "CNC(=O)c1cc(Oc2ccc(NC(=O)Nc3ccc(Cl)c(C(F)(F)F)c3)cc2)ccn1 [SORAFENIB]"
  Obs Value: "< 5.40"
- Compound: "COc1ccc(-c2ccc3c(N4CCOC[C@@H]4C)nc(N4CCOC[C@@H]4C)nc3n2)cc1CO [AZD-8055]"
  Obs Value: "< 5.70"
- Compound: "C=C1C(=O)O[C@@H]2C3O[C@]3(C)CC/C=C(\\C)CC[C@@H]12 (stereo partly specified)"
  Obs Value: 5.77
- Compound: "CN(C)C/C=C/C(=O)Nc1cc2c(Nc3ccc(F)c(Cl)c3)ncnc2cc1O[C@H]1CCOC1 [AFATINIB]"
  Obs Value: "< 6.30"
- Compound: "CCC(=O)N1CCN(c2ccc(-n3c(=O)ccc4cnc5ccc(-c6cnc7ccccc7c6)cc5c43)cc2C(F)(F)F)CC1 [TORIN1]"
  Obs Value: 6.93
